The reported measurements were obtained from the NIST ThermoML archive (doi:10.1021/je300873x).

Measured surface tension liquid-gas values are reported for all entries that follow.
assay: mn = molality of the nth substance listed, in mol/kg; conditions: 298.15 K, Pendant drop shape, m2 = 0
Numbers after ± are expanded uncertainties.
Please give the number followed by its unit.

Please review the following examples before continuing.
[
  {
    "molecule": "O [water] + CCCCCCCCCCCCCCCC[N+](C)(C)CCO.[Br-]",
    "endpointValue": "72.17 ± 0.64 mN/m"
  },
  {
    "molecule": "O [water] + CCCCCCCCCCCC[N+](C)(C)CCO.[Br-]",
    "endpointValue": "72.17 ± 0.64 mN/m"
  },
  {
    "molecule": "O [water] + CCCCCCCCCCCC[N+](C)(CCO)CCO.[Br-]",
    "endpointValue": "72.17 ± 0.01 mN/m"
  }
]

Task item: Entry O [water] + CCCCCCCCCCCCCCCC[N+](C)(CCO)CCO.[Br-] needs its surface tension liquid-gas filled in; supply it.
Reply: 72.17 ± 0.64 mN/m

Task item: Give a short answer stating reported surface tension liquid-gas for O [water] + CCCCCCCCCCCCCC[N+](C)(C)CCO.[Br-] .
Reply: 72.17 ± 0.64 mN/m

Task item: Fill in reported surface tension liquid-gas for this entry: O [water] + CCCCCCCCCCCCCC[N+](C)(CCO)CCO.[Br-]
Reply: 72.17 ± 0.64 mN/m
